Assay Explanation: Navarixin pharmacokinetics in combination with pembrolizumab
Format: in vivo, human
Condition Context: human, plasma, oral, NSCLC; navarixin 30 mg + pembrolizumab 200 mg; Cycle 1 day 1; geometric mean (% geometric CV); n=12
Parameter: Cmax (ng/mL)
State the answer as a number, implicitly in ng/mL.

[ask] Can you share its Cmax? I mean this compound: CC[C@@H](Nc1c(Nc2cccc(C(=O)N(C)C)c2O)c(=O)c1=O)c1ccc(C)o1
[reply] 181

* * *

Assay Explanation: Navarixin pharmacokinetics in combination with pembrolizumab
Assay type: in vivo, human
Condition Context: human, plasma, oral, MSS CRC; navarixin 30 mg + pembrolizumab 200 mg; Cycle 1 day 1; geometric mean (% geometric CV); n=19
Parameter: AUC(0-t) (ng·h/mL)
The figure you give is taken to be in ng·h/mL; do not add the unit.

[ask] If you can, please state the reported AUC(0-t) value of CC[C@@H](Nc1c(Nc2cccc(C(=O)N(C)C)c2O)c(=O)c1=O)c1ccc(C)o1 [Navarixin] .
[reply] 464

Source: paper PMC11076327
